Tested on: EMT6 tumor-bearing model mice
Assay: Biodistribution in tumor and organs of tumor-bearing mouse (Example 14)
Assay type: in vivo, mouse (Balb/c nu/nu)
Settings: 60 minutes after administration, mean
In this section, each of the compounds is paired with its reported Muscle.
recorded endpoint: Muscle (% ID/g)

compound="O=[N+]([O-])c1nccn1CC(CO)(CO)C[18F] [Compound 1]" observed=1.71
compound="O=[N+]([O-])c1nc(CO)cn1CC(CO)(CO)C[18F] [Compound 2]" observed=1.25
compound="O=[N+]([O-])c1nccn1CCC(CO)(CO)C[18F] [Compound 3]" observed=2.66
compound="O=[N+]([O-])c1nccn1CC(O)C[18F] (stereo not shown) [[^18F]FMISO, [^18F]fluoromisonidazole, reference compound]" observed=3.80

* * *

Tested on: EMT6 tumor-bearing model mice
Test: Biodistribution in tumor and organs of tumor-bearing mouse (Example 14)
Assay type: in vivo, mouse (Balb/c nu/nu)
Settings: 60 minutes after administration, mean
Let's look at some compounds and their measured Stomach.
recorded endpoint: Stomach (% ID/g)

compound=O=[N+]([O-])c1nccn1CCC(CO)(CO)C[18F] recorded_endpoint=Stomach observed=1.99
compound=O=[N+]([O-])c1nc(CO)cn1CC(CO)(CO)C[18F] recorded_endpoint=Stomach observed=0.48
compound=O=[N+]([O-])c1nccn1CC(CO)(CO)C[18F] recorded_endpoint=Stomach observed=1.53
compound="O=[N+]([O-])c1nccn1CC(O)C[18F] (stereo not shown) [[^18F]FMISO, [^18F]fluoromisonidazole, reference compound]" recorded_endpoint=Stomach observed=4.17

* * *

Test system: EMT6 tumor-bearing model mice
Test: Biodistribution in tumor and organs of tumor-bearing mouse (Example 14)
Type: in vivo, mouse (Balb/c nu/nu)
Conditions: 60 minutes after administration, mean
Description: The biodistribution of compounds 1 to 3 and [^18F]FMISO in a tumor and each of the organs of a tumor-bearing mouse was measured. Tumor-bearing model mice used in this experiment were the same as those prepared in Example 10, and 3 or 4 cases that had attained a tumor volume of 200 to 400 mm^3 were selected from each group. […]
Below, each entry is listed alongside its reported Small intestine.
recorded endpoint: Small intestine (% ID/g)

compound="O=[N+]([O-])c1nccn1CC(O)C[18F] (stereo not shown) [[^18F]FMISO, [^18F]fluoromisonidazole, reference compound]" readout_unit="% ID/g" observed=5.76
compound=O=[N+]([O-])c1nccn1CCC(CO)(CO)C[18F] readout_unit="% ID/g" observed=4.68
compound=O=[N+]([O-])c1nccn1CC(CO)(CO)C[18F] readout_unit="% ID/g" observed=3.72
compound=O=[N+]([O-])c1nc(CO)cn1CC(CO)(CO)C[18F] readout_unit="% ID/g" observed=2.35

* * *

Test system: EMT6 tumor-bearing model mice
Experiment: Biodistribution in tumor and organs of tumor-bearing mouse (Example 14)
Assay type: in vivo, mouse (Balb/c nu/nu)
Settings: 120 minutes after administration, mean
recorded endpoint: Gall bladder (% ID/g)

compound=O=[N+]([O-])c1nccn1CC(CO)(CO)C[18F] recorded_endpoint="Gall bladder" observed=8.21
compound=O=[N+]([O-])c1nc(CO)cn1CC(CO)(CO)C[18F] recorded_endpoint="Gall bladder" observed=7.33
compound="O=[N+]([O-])c1nccn1CC(O)C[18F] (stereo not shown) [[^18F]FMISO, [^18F]fluoromisonidazole, reference compound]" recorded_endpoint="Gall bladder" observed=43.43
compound=O=[N+]([O-])c1nccn1CCC(CO)(CO)C[18F] recorded_endpoint="Gall bladder" observed=15.45
